Reported IC50 values for the following compounds.
Biological target: DRB1*1101 (Homo sapiens, UniProt P01903+P01911, A100R/A169T/A87E/I96F/K41T/L162R/M171V/P40S/Q125H/Q178H/Q39Y/Q99D/R42S/S66Y/T262R/V115G/W38E)
Construct: Epstein-Barr virus (EBV) transformed homozygous cell lines were used as sources of human HLA Class II molecules; endogenous in cells; host or cells: SWEIG (EBV-transformed homozygous B cell line)
Sequence (P01903 26-254, other chains not shown): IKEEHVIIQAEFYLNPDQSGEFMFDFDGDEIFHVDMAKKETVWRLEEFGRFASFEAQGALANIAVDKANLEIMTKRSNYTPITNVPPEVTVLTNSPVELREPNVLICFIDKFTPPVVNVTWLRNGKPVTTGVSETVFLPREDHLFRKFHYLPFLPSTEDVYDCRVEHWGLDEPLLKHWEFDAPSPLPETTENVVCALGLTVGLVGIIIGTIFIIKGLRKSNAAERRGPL
Assay: Class II peptide-binding assay DRB1*1101 (DR5w11)

INSERT INTO measurements (chemical_structure, property_label, reported_value) VALUES
  ('CC(C)C[C@H](NC(=O)CN)C(=O)N[C@@H](CCCNC(=N)N)C(=O)N[C@@H](CO)C(=O)N[C@@H](CC(C)C)C(=O)N[C@H](C(=O)N[C@H](C(=O)N[C@@H](CC(C)C)C(=O)N[C@@H](CC(C)C)C(=O)N[C@@H](CC(=O)O)C(=O)N[C@@H](C)C(=O)N[C@@H](CC(C)C)C(=O)NCC(=O)N[C@@H](C)C(=O)N[C@@H](CCC(N)=O)C(=O)O)[C@@H](C)O)[C@@H](C)O', 'IC50', '10 nM');

Please supply the value of reported IC50 for the item CC(C)C[C@H](NC(=O)[C@H](Cc1ccccc1)NC(=O)[C@H](CC(N)=O)NC(=O)[C@H](CO)NC(=O)[C@H](Cc1ccc(O)cc1)NC(=O)[C@@H](NC(=O)[C@H](CCCNC(=N)N)NC(=O)[C@H](Cc1ccccc1)NC(=O)CNC(=O)[C@H](CCCCN)NC(=O)[C@H](CCCNC(=N)N)NC(=O)[C@H](Cc1ccccc1)NC(=O)[C@@H](NC(=O)[C@@H](N)CC(=O)O)[C@@H](C)O)C(C)C)C(=O)N[C@@H](CCCNC(=N)N)C(=O)O
10 nM

Fill in reported IC50 for this entry: CC[C@H](C)[C@H](NC(=O)CNC(=O)[C@@H]1CCCN1C(=O)[C@H](CC(C)C)NC(=O)[C@H](CC(=O)O)NC(=O)[C@H](Cc1ccccc1)NC(=O)[C@H](CCC(=O)O)NC(=O)[C@@H](NC(=O)[C@@H](NC(=O)[C@H](Cc1ccccc1)NC(=O)[C@@H](N)CCC(=O)O)C(C)C)C(C)C)C(=O)N[C@@H](CCCCN)C(=O)N[C@@H](C)C(=O)O
> 20000 nM

Tell me IC50 reported for CC(C)C[C@H](NC(=O)[C@H](CC(=O)O)NC(=O)[C@H](CC(N)=O)NC(=O)[C@H](CO)NC(=O)[C@H](Cc1ccc(O)cc1)NC(=O)[C@@H](NC(=O)[C@H](CCCNC(=N)N)NC(=O)[C@H](Cc1ccccc1)NC(=O)[C@H](CC(C)C)NC(=O)[C@H](CCCCN)NC(=O)[C@H](CCCNC(=N)N)NC(=O)[C@H](Cc1ccccc1)NC(=O)[C@@H](NC(=O)[C@@H](N)CC(=O)O)[C@@H](C)O)C(C)C)C(=O)N[C@@H](CCCNC(=N)N)C(=O)O
3.6 nM

Fill in IC50 for record CC(C)C[C@H](NC(=O)[C@H](Cc1ccccc1)NC(=O)[C@H](CC(N)=O)NC(=O)[C@H](CO)NC(=O)[C@H](Cc1ccc(O)cc1)NC(=O)[C@@H](NC(=O)[C@H](CCCNC(=N)N)NC(=O)[C@H](Cc1ccccc1)NC(=O)[C@H](C)NC(=O)[C@H](CCCCN)NC(=O)[C@H](CCCNC(=N)N)NC(=O)[C@H](Cc1ccccc1)NC(=O)[C@@H](NC(=O)[C@@H](N)CC(=O)O)[C@@H](C)O)C(C)C)C(=O)N[C@@H](CCCNC(=N)N)C(=O)O
5.3 nM
